System: Aerobactin synthetase IucA (Klebsiella pneumoniae, hypervirulent)
method_description: IucA enzyme inhibition, biochemical, LOPAC library, absorbance readout (AID 1346212);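 also: 100% = no compound wells and 0% = no enzyme wells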
measurement_parameters: IucA enzyme assay, absorbance (OD) readout; stronger effect = lower value; concentration not given here
The source made the active and inactive calls. No rule for the calls is given here.
measured_parameter: remaining activity

>>> result("OC(CN1CCN(c2cccc(Cl)c2)CC1)C(c1ccccc1)c1ccccc1 (centres undefined)")
"114% (inactive)"
>>> result("O=C(Cc1ccc(Cl)c(Cl)c1)N1CCCCC1CN1CCCC1 (centres undefined)")
"90.2% (inactive)"
>>> result("COCc1nc2c([nH]1)c(=O)n(C)c(=O)n2CC(C)C")
"112% (inactive)"
>>> result("N[C@@H](Cc1c[nH]c2ccc(O)cc12)C(=O)O")
"99.1% (inactive)"
>>> result("Oc1ccc2c3c1O[C@H]1c4[nH]c5c(c4C[C@@]4(O)[C@@H](C2)N(CC2CC2)CC[C@]314)C[C@@]1(O)[C@H]2Cc3ccc(O)c4c3[C@@]1(CCN2CC1CC1)[C@H]5O4")
"120% (inactive)"
>>> result("NS(=O)(=O)c1cc2c(cc1Cl)NC(C1CC3C=CC1C3)NS2(=O)=O (centres undefined)")
"95.7% (inactive)"
>>> result("C[C@]12C=CC(=O)C=C1CC[C@H]1[C@@H]3C[C@@H](O)[C@](O)(C(=O)CO)[C@@]3(C)C[C@H](O)[C@@]12F")
"110% (inactive)"
>>> result("CC(=O)O[C@H]1C(=O)[C@@]2(C)[C@H]([C@H](OC(=O)c3ccccc3)[C@]3(O)C[C@H](OC(=O)[C@H](O)[C@@H](NC(=O)c4ccccc4)c4ccccc4)C(C)=C1C3(C)C)[C@]1(OC(C)=O)CO[C@@H]1C[C@@H]2O")
"94.8% (inactive)"
>>> result("C[N+]1(C)C2CC(OC(=O)[C@H](CO)c3ccccc3)CC1C1OC12 (some centres undefined)")
"96.4% (inactive)"
>>> result("S=C(S)N1CCCC1")
"83.6% (inactive)"
>>> result("CC(=O)O[C@H]1C[C@@H]2CC[C@@H]3[C@H](CC[C@@]4(C)[C@H]3C[C@H]([N+]3(C)CCCCC3)[C@@H]4OC(C)=O)[C@@]2(C)C[C@@H]1[N+]1(C)CCCCC1")
"121% (inactive)"
>>> result("NC1C=CC=C(C(=O)O)C1 (centres undefined)")
"125% (inactive)"
>>> result("O=C1NC(=S)S/C1=C/c1cc(Br)ccc1OCc1ccccc1Br")
"116% (inactive)"
>>> result("OC[C@H]1O[C@@H](n2cnc3c(NC4CCCC4)ncnc32)[C@H](O)[C@@H]1O")
"117% (inactive)"

###

experimental_system: L-lactate dehydrogenase (Plasmodium falciparum (isolate CDC / Honduras)) (UniProt Q27743)
Sequence (Q27743 whole entry, looked up): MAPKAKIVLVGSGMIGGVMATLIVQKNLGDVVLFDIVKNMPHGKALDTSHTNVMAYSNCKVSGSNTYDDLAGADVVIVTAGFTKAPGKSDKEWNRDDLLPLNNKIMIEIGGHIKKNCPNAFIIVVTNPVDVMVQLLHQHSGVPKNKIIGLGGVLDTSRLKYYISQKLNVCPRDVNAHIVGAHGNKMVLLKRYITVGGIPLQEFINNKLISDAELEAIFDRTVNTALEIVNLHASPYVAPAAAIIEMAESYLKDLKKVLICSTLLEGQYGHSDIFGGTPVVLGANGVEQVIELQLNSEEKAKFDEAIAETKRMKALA
method_description: PfLDH activity inhibition – cell lysate, 3D7 strain, counter-screen for P. falciparum growth inhibition project (AID 2304);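 also: 0% = vehicle and 100% = reference inhibitor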
measurement_parameters: P. falciparum 3D7 crude extract, LDH APAD/NBT absorbance; at 2 µM; stronger effect = higher value
measured_parameter: inhibition (%)

>>> result("Cc1cccc(C(=O)Nc2ccnc(N(C)C3CCN(Cc4cccc(O)c4)CC3)c2)c1")
-1
>>> result("CC(=O)N(Cc1ccccc1-c1cccc(CNCc2ccc3c(c2)OCO3)c1)C1CCN(Cc2ccccc2)CC1")
-3
>>> result("COc1ccc(C[C@H]2NC[C@H](O)[C@H]2OC(C)=O)cc1")
6
>>> result("C/C=C1\\CN2CC[C@H]1C[C@H]2[C@H](O)c1ccnc2ccc(O)cc12")
-3
>>> result("C=C[C@H]1CN2CC[C@H]1C[C@@H]2[C@@H](O)c1ccnc2ccccc12")
3

###

method_description: differential killing of epithelial or mesenchymal cells, primary screen, imaging, PC-3E GFP, TEM4-18 mCherry, co-culture (AID 1345086);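 also: cells exposed to compound for 72 h before imaging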
measurement_parameters: imaging cell counts, measured here: mesenchymal TEM4-18 mCherry cell survival, at 1 µM
Hi, to clarify the labels: criterion met covers normalised cell number from 1 upward, criterion not met covers anything below 1.

>>> category_label("C[N+]1(C)CCOC(O)(c2ccc(-c3ccc(C4(O)C[N+](C)(C)CCO4)cc3)cc2)C1 (stereo unspecified)")
"criterion met"
>>> category_label("CCCC(C)(COC(N)=O)COC(=O)NC(C)C (stereo unspecified)")
"criterion met"
>>> category_label("COC1=CC(=O)OC(/C=C/c2ccccc2)C1 (stereo unspecified)")
"criterion not met"
>>> category_label("C[C@H]1O[C@H](OC2[C@@H](O)[C@@H](O)C(O)[C@H](O)[C@H]2O)[C@@H](N)C[C@@H]1N=C(N)C(=O)O (stereo partly specified)")
"criterion met"

###

method_description: hESC survival regulators, cell-based (AID 493140);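 also: cells exposed to compounds for four days before counting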
measurement_parameters: human embryonic stem cell survival screen; stronger effect = higher value
Output yes for survival not less than 8; output no otherwise.

>>> category_label("C/C=C1/C[N+]2(C)CCC34C(=C(C=O)[C@H]1C[C@@H]32)Nc1ccccc14 (some centres undefined)")
"no"
>>> category_label("CC[C@@H]1C(=O)OC[C@@H]1Cc1cncn1C")
"no"
>>> category_label("Clc1ccc(C(Cn2ccnc2)OCc2csc3c(Cl)cccc23)c(Cl)c1 (centres undefined)")
"yes"
>>> category_label("CCN(CC)C(=O)N[C@H]1C=C2c3cccc4[nH]cc(c34)C[C@H]2N(C)C1")
"yes"
>>> category_label("CCCCC/C=C\\C/C=C\\C/C=C\\C/C=C\\CCCC(=O)NCCO")
"yes"
>>> category_label("CC[C@@H](C)C(=O)O[C@H]1[C@H](O)[C@H]2[C@@H](CN3C[C@@H](C)CC[C@H]3[C@@]2(C)O)C2C[C@]34O[C@@]5(O)[C@@H](OC(=O)C(C)(O)CC)CC[C@@]3(C)[C@@H]5[C@@H](OC(C)=O)[C@@H](OC(C)=O)[C@H]4[C@@]21O (some centres undefined)")
"no"
>>> category_label("CN1CCC2=C[C@@H](O)C3OC(=O)c4cc5c(cc4C3[C@H]21)OCO5 (some centres undefined)")
"no"
>>> category_label("C=CCN1CC[C@]23c4c5ccc(O)c4O[C@H]2C(=O)CC[C@@]3(O)[C@H]1C5")
"yes"

###

method_description: Cy5 fluorescence quenching or enhancement artefacts, artefact control for HCV NS3 helicase inhibitor project, biochemical, LOPAC1280 (AID 687037)
measurement_parameters: Cy5-DNA-NS3h complex fluorescence interference counterscreen
Each entry below lists one item and its recorded fluorescence ratio (interference) value.
measured_parameter: fluorescence ratio (interference)

>>> result("C=C(C)[C@H]1CN[C@H](C(=O)O)[C@H]1CC(=O)O")
1
>>> result("N[C@@H](Cn1oc(=O)[nH]c1=O)C(=O)O")
1
>>> result("CN1C(=O)CCS(=O)(=O)C1c1ccc(Cl)cc1 (centres undefined)")
1
>>> result("CC(C)NC(C)Cc1ccc(I)cc1 (centres undefined)")
1
>>> result("CC1OC1P(=O)(O)O (centres undefined)")
1
>>> result("c1ccc(C2(c3ccccc3)CC2C2=NCCN2)cc1 (centres undefined)")
0.9
>>> result("O=P1(N(CCCl)CCCl)NCCCO1 (centres undefined)")
1
>>> result("CN1C2CCC1CC(OC(c1ccccc1)c1ccccc1N)C2 (centres undefined)")
1
>>> result("Cc1ncsc1CCCl")
1
>>> result("O=P(O)(O)C(Cl)(Cl)P(=O)(O)O")
1
>>> result("C[N+](C)(C)CC(=O)O")
0.9
>>> result("CN(N=O)c1ccc(O)c(O)c1")
0.9
>>> result("CCn1cc(C(=O)O)c(=O)c2ccc(C)nc21")
1
>>> result("CC[C@@H](CO)NC(=O)[C@@H]1C=C2c3cccc4c3c(cn4C)C[C@H]2N(C)C1")
1
>>> result("C[N+]1(C)CCc2cc3c(cc2[C@H]1[C@@H]1OC(=O)c2c1ccc1c2OCO1)OCO3")
1
>>> result("CNCCc1c[nH]c2ccc(O)cc12")
0.9
>>> result("C[N+]1(C)C2CC(OC(=O)[C@H](CO)c3ccccc3)CC1C1OC12 (some centres undefined)")
1
>>> result("CC(N)[C@H](O)c1ccc(O)c(O)c1 (some centres undefined)")
1
>>> result("NC(CCP(=O)(O)O)C(=O)O (centres undefined)")
1
>>> result("C=CCN(C1=NCCN1)c1c(Cl)cccc1Cl")
1
>>> result("C[C@@H](N)Cc1cnc[nH]1")
1
>>> result("CCCN(CCC)CCc1c[nH]c2ccc(C(N)=O)cc12")
1.1
>>> result("CC(=O)NCCc1c[nH]c2ccccc12")
0.9
>>> result("NCCCP(=O)(O)O")
1
>>> result("C/C(O)=C(\\C#N)C(=O)Nc1cc(Br)ccc1Br")
1
>>> result("N[C@@H](CCl)C(=O)O")
1
>>> result("C=CCN1CC[C@]23c4c5ccc(O)c4O[C@@H]2/C(=N\\N=C2\\CC[C@@]4(O)C6Cc7ccc(O)c8c7[C@@]4(CCN6CC=C)[C@@H]2O8)CC[C@@]3(O)C1C5")
0.9
>>> result("C[N+]1(C)C2CCC1CC(OC(=O)C(CO)c1ccccc1)C2 (centres undefined)")
1
>>> result("CCCN(CCC)[C@H]1CCc2c(F)ccc(O)c2C1")
1
>>> result("CC(Cc1ccc(OCC(=O)O)cc1)NCC(O)c1cccc(Cl)c1 (centres undefined)")
1
>>> result("NCC(CP(=O)(O)O)c1ccc(Cl)cc1 (centres undefined)")
1
>>> result("CCCN(CCC)C1CCc2ccc(O)cc2C1 (centres undefined)")
1
>>> result("O=C(N[C@H]1CN2CCC1CC2)c1ccc(Cl)cc1")
1
>>> result("Cc1[nH]c2ccc(O)cc2c1CCN")
0.9
